Assay: Ionization at 45 degree C
Assay type: ADME
Below is a list of entries, each paired with its recorded pKa value.

The cases that follow already have their pKa on record.
In [3]: df
Out[3]:
                   smiles_string  endpoint_label  value_reported
0           Clc1cccc(N2CCNCC2)c1             pKa            8.12
1  CCCCCN1CCN(c2cccc3c2OCCO3)CC1             pKa            7.91
2    CCCCCN1CCN(c2cccc(Cl)c2)CC1             pKa             > 7

Exam item: Would you mind telling me what pKa value was observed for `c1cc2c(c(N3CCNCC3)c1)OCCO2` ?
Marked response: 8.55

###

Below is a list of entries, each paired with its recorded Ki value.
Biological target: UniProt P19327
Assay: Displacement of radioligand [3H]2-(di-N-propylamino)-8-hydroxytetralin from 5-hydroxytryptamine 1A receptor in rat frontal cortex homogenate
Format: tissue-based
Enter your answer as a number in nM; do not include the unit.

The cases that follow already have their Ki on record.
>>> print(df.to_string())
                     smiles_string    assay_target  value_reported
0         CN1CCN(c2cccc3ccoc23)CC1  UniProt P19327             8.1
1               COc1ccccc1N1CCNCC1  UniProt P19327             170
2  CCCCCCCCN1CCN(c2cccc3ccoc23)CC1  UniProt P19327             1.7

Exam item: Would you mind telling me what Ki value was observed for `CC(C)N1CCN(c2cccc3ccoc23)CC1` ?
Marked response: 56

Exam item: Would you mind telling me what Ki value was observed for `CCN1CCN(c2cccc3ccoc23)CC1` ?
Marked response: 23

Exam item: Would you mind telling me what Ki value was observed for `CN1CCN(c2cccc3c2OCCO3)CC1` ?
Marked response: 24

Exam item: Would you mind telling me what Ki value was observed for `c1cc2c(c(N3CCN(CCC4CCCCC4)CC3)c1)OCCO2` ?
Marked response: 0.25

###

Assay: Ionization at 30 degree C
Format: ADME
endpoint_label: pKa
In your answer, state the number alone without any accompanying words.

The cases that follow already have their pKa on record.
In [3]: df
Out[3]:
                   smiles_string  value_reported
0           Clc1cccc(N2CCNCC2)c1            8.46
1  CCCCCN1CCN(c2cccc3c2OCCO3)CC1            8.21

Alright, here's another compound for you.
Exam item: Would you mind telling me what pKa value was observed for `c1cc2c(c(N3CCNCC3)c1)OCCO2` ?
Marked response: 8.88

###

Assay: Ionization at 25 degree C
Type: ADME
Below is a list of entries, each paired with its recorded pKa value.
In your answer, state the number alone without any accompanying words.

The cases that follow already have their pKa on record.
In [3]: df
Out[3]:
                   smiles_string  endpoint_label  value_reported
0  CCCCCN1CCN(c2cccc3c2OCCO3)CC1             pKa            8.27
1     c1cc2c(c(N3CCNCC3)c1)OCCO2             pKa            8.99

Alright, here's another molecule for you.
Exam item: Would you mind telling me what pKa value was observed for `Clc1cccc(N2CCNCC2)c1` ?
Marked response: 8.6

###

Target: 5-hydroxytryptamine receptor 1A (Rattus norvegicus, UniProt P19327)
Sequence (P19327 whole entry): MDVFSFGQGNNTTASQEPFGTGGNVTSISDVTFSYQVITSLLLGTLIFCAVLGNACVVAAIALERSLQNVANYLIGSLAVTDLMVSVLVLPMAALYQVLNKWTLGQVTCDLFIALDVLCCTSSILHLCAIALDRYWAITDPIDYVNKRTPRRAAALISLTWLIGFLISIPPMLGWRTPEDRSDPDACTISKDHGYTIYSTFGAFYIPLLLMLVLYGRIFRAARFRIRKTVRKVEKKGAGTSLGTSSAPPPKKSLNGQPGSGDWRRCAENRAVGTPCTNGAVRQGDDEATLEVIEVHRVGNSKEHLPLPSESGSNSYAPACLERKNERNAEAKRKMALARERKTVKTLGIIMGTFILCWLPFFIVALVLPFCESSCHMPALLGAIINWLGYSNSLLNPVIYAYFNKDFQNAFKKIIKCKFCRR
Assay: Displacement of radioligand [3H]2-(di-N-propylamino)-8-hydroxytetralin from 5-hydroxytryptamine 1A receptor in rat frontal cortex homogenate
Format: tissue-based
Below is a list of entries, each paired with its recorded pKi value.
Please note pKi is a logarithmic value: minus log10 of concentration in mol/L. Answer with that number alone.

In [3]: df
Out[3]:
                     smiles_string  value_reported
0  c1cc(N2CCN(CC3CC3)CC2)c2occc2c1            7.70
1          c1cc(N2CCNCC2)c2occc2c1            7.89
2      CCCCN1CCN(c2cccc3ccoc23)CC1            8.23
3     CCCCN1CCN(c2cccc3c2OCCO3)CC1            7.92

Exam item: Would you mind telling me what pKi value was observed for `CC(C)CN1CCN(c2cccc3ccoc23)CC1` ?
Marked response: 7.19

Exam item: Would you mind telling me what pKi value was observed for `O=C1c2ccccc2S(=O)(=O)N1CCCCN1CCN(c2ncccn2)CC1` ?
Marked response: 8.26

Exam item: Would you mind telling me what pKi value was observed for `CCCN1CCN(c2cccc3ccoc23)CC1` ?
Marked response: 7.54

Exam item: Would you mind telling me what pKi value was observed for `CCCCCCN1CCN(c2cccc3ccoc23)CC1` ?
Marked response: 9.27

Exam item: Would you mind telling me what pKi value was observed for `c1cc(N2CCN(CC3CCCCC3)CC2)c2occc2c1` ?
Marked response: 8.11

Exam item: Would you mind telling me what pKi value was observed for `CCCCCCN1CCN(c2cccc3c2OCCO3)CC1` ?
Marked response: 9.30

Exam item: Would you mind telling me what pKi value was observed for `CCCCCCCCCCN1CCN(c2cccc3ccoc23)CC1` ?
Marked response: 8.10

Exam item: Would you mind telling me what pKi value was observed for `CCCCCN1CCN(c2cccc3c2OCCO3)CC1` ?
Marked response: 8.66

Exam item: Would you mind telling me what pKi value was observed for `CCCCCCCCCCN1CCN(c2cccc3c2OCCO3)CC1` ?
Marked response: 9.00

###

Below is a list of entries, each paired with its recorded pKa value.
Assay: Ionization at 20 degree C
Format: ADME
In your answer, state the number alone without any accompanying words.

The cases that follow already have their pKa on record.
>>> df
                 smiles_string  endpoint_label  value_reported
0   c1cc2c(c(N3CCNCC3)c1)OCCO2             pKa            9.18
1      c1cc(N2CCNCC2)c2occc2c1             pKa            8.84
2    CN1CCN(c2cccc3c2OCCO3)CC1             pKa            8.07
3         Clc1cccc(N2CCNCC2)c1             pKa            8.72
4  CCCN1CCN(c2cccc3c2OCCO3)CC1             pKa            8.36

Exam item: Would you mind telling me what pKa value was observed for `CCCCN1CCN(c2cccc3c2OCCO3)CC1` ?
Marked response: 8.41

Exam item: Would you mind telling me what pKa value was observed for `CCN1CCN(c2cccc3c2OCCO3)CC1` ?
Marked response: 8.34

Exam item: Would you mind telling me what pKa value was observed for `CCCCCN1CCN(c2cccc3c2OCCO3)CC1` ?
Marked response: 8.41

###

Molecular target: 5-hydroxytryptamine receptor 1A (Rattus norvegicus, UniProt P19327)
Test: Displacement of radioligand [3H]2-(di-N-propylamino)-8-hydroxytetralin from 5-hydroxytryptamine 1A receptor in rat frontal cortex homogenate
Format: tissue-based
endpoint_label: Ki (nM)
Enter your answer as a number in nM; do not include the unit.

The cases that follow already have their Ki on record.
>>> df
                           smiles_string  result_units  value_reported
0      c1cc(N2CCN(C3CCCCC3)CC2)c2occc2c1            nM              64
1  c1cc2c(c(N3CCN(CC4CCCCC4)CC3)c1)OCCO2            nM              11

Exam item: Would you mind telling me what Ki value was observed for `CCCCCCCCN1CCN(c2cccc3c2OCCO3)CC1` ?
Marked response: 0.61

Exam item: Would you mind telling me what Ki value was observed for `CCCCCN1CCN(c2cccc3ccoc23)CC1` ?
Marked response: 0.81

Exam item: Would you mind telling me what Ki value was observed for `CCCN1CCN(c2cccc3c2OCCO3)CC1` ?
Marked response: 80

###

Assay: Ionization at 37 degree C
Type: ADME
Threshold rule: pKa greater than or equal to 8 is 1; below that, 0.

Before answering, review these 3 worked examples.
                                   molecule  assigned_label
0  Clc1cccc(N2CCNCC2)c1 [CHLOROPHENYLPIPERAZINE]               1
1                   c1cc(N2CCNCC2)c2occc2c1               1
2                  CN1CCN(c2cccc3ccoc23)CC1               0

Exam item: Entry c1cc2c(c(N3CCNCC3)c1)OCCO2 [ELTOPRAZINE] : is its pKa no less than 8?
Marked response: 1
